We begin with a simple list: items and their reported inhibition at 0.25 h, 10 µM.
# assay.system: CYP3A4 (Homo sapiens)
# Sequence (P08684 whole entry): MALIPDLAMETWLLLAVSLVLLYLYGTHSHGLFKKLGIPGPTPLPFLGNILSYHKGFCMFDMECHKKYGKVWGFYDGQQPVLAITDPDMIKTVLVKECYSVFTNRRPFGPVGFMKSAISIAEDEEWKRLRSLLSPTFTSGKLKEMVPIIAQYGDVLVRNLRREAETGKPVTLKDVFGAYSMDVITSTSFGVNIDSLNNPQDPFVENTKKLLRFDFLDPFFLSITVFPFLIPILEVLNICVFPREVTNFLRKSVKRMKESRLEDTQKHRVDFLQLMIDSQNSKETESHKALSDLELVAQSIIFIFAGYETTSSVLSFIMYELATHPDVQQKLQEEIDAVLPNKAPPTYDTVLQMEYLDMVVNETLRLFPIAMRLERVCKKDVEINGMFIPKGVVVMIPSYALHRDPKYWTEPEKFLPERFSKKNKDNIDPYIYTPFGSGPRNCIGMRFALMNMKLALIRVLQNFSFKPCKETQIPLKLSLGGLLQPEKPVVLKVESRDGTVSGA
# method.summary: Inhibition of CYP3A4 (unknown origin) expressed in insect cells at 10 uM using testosterone as substrate after 15 mins by HPLC analysis relative to control
# Type: ADME
# experimental.context: recombinant CYP3A4 expressed in insect cells, probe testosterone
Give the figure together with its unit, number first.

Sample records with inhibition at 0.25 h, 10 µM:
smiles_string=CNCc1cn(S(=O)(=O)c2cc(C)ccn2)c(-c2cccnc2F)c1F measure="inhibition at 0.25 h, 10 µM" result=4.3%
smiles_string=CNCc1cn(S(=O)(=O)c2ncccc2C)c(-c2cccnc2F)c1F measure="inhibition at 0.25 h, 10 µM" result=29%

Could you now look at the following compound, please?
Endpoint output: inhibition at 0.25 h, 10 µM of `CNCc1cn(S(=O)(=O)c2ccccn2)c(-c2cccnc2F)c1F` . Value? 7.7%
